- Protocol notes: NCI Yeast Anticancer Drug Screen. Data for the mlh1 rad18 strain (AID 175)
- Assay conditions: S. cerevisiae mlh1 rad18 strain growth inhibition; at 50.0 µM; hits give high values
Compounds without any hit were thinned out: in the full panel of roughly 79,000, 15% have a hit. Where a SMILES comes first, the peptide text is derived from it. The star is where a group is joined. Boc = CC(C)(C)OC(=O)*
Readout: growth inhibition (%)
# output: bare number, implied unit %

So for COC(=O)CSc1[nH]c2nc(C)nc(Nc3ccccc3)c2c1C#N , the logged growth inhibition turned out to be 16.1

So for CCCCCOS(=O)(=O)O , the logged growth inhibition turned out to be 5.3

So for CC(C)(CO)N1CCN(C(=S)Nc2ccccc2)CC1 , the logged growth inhibition turned out to be 17.8

So for CCCc1cc2c3c(c(=O)oc2cc1O)CCCC3 , the logged growth inhibition turned out to be 96.4

So for COC(=O)C(Cc1c[nH]c2ccccc12)NC(=O)C(Cc1c[nH]c2ccccc12)NC(=O)C(Cc1c[nH]c2ccccc12)NC(=O)C(Cc1c[nH]c2ccccc12)NC(=O)OC(C)(C)C (stereo not drawn) (Boc-WWWW-OMe; configuration not given here) , the logged growth inhibition turned out to be 6.2

So for CC1CC2OC(=O)C(C)C2CC2(C)C(OC3OC(CO)C(O)C(O)C3O)OCCC12 (stereo not drawn) , the logged growth inhibition turned out to be -49.7

So for CCCCS(=N)(=O)CC[C@H](N)C(=O)O (stereo partly drawn) , the logged growth inhibition turned out to be -9.85

So for c1ccc(CNc2ncccn2)nc1 , the logged growth inhibition turned out to be 11.4
